Measured solubility at 24 h accompanies every entry in the list below.
- Experiment notes: Solubility determination of MK2 inhibitors (kinetic aqueous solubility, UPLC)
- Type: physicochemical
- Condition label: aqueous buffer (system solution from pION inc.), 22 °C, pH 7.4, aqueous buffer, kinetic from dmso stock, pH 7.4, room temperature, about 1% DMSO, 24 h shaking; read-out: solubility

Compound | solubility at 24 h
O=C1NCC2(CCCNC2)c2[nH]c(-c3ccnc(-c4cc5ccccc5o4)n3)cc21 (centres unmarked) | ≥ 50 µg/mL
CC(C)Cc1ccc(-c2nccc(-c3cc4c([nH]3)C3(CCNCC3)CNC4=O)n2)cc1 | ≥ 50 µg/mL
O=C1NCC2(CCNCC2)c2[nH]c(-c3ccnc(-c4cccc(-c5ccccc5)c4)n3)cc21 | ≥ 50 µg/mL
O=C1NCC2(CCNCC2)c2[nH]c(-c3ccnc(-c4ccccc4F)n3)cc21 | 20 to 50 µg/mL
O=C1NCC2(CCCNC2)c2[nH]c(-c3ccnc(-c4ccc5c(c4)OCO5)n3)cc21 (centres unmarked) | ≥ 50 µg/mL
NCC(=O)N1CCC2(CC1)CNC(=O)c1cc(-c3ccnc(-c4cc5ccccc5o4)n3)[nH]c12 | ≥ 50 µg/mL
O=C1NCC2(CCNCC2)c2[nH]c(-c3ccnc(-c4ccc5c(c4)OCO5)n3)cc21 | 20 to 50 µg/mL
Cc1ccc(C(=O)Nc2cc(-c3cc4c([nH]3)C3(CCNCC3)CNC4=O)ccn2)cc1C | ≥ 50 µg/mL
COc1cc(-c2nccc(-c3cc4c([nH]3)C3(CCNCC3)CNC4=O)n2)ccc1O | ≥ 50 µg/mL
O=C1NCC2(CCNCC2)c2[nH]c(-c3ccnc(-c4cc5ccccc5s4)n3)cc21 | ≥ 50 µg/mL
CC(C)(C)c1ccc(-c2nccc(-c3cc4c([nH]3)C3(CCNCC3)CNC4=O)n2)cc1 | ≥ 50 µg/mL
O=C1NCC2(CCNCC2)c2[nH]c(-c3ccnc(-c4nc5ccccc5s4)c3)cc21 | ≥ 50 µg/mL
O=C1NCC2(CNCCO2)c2[nH]c(-c3ccnc(-c4cc5ccccc5o4)n3)cc21 (centres unmarked) | ≥ 50 µg/mL
O=C1NCC2(CCNCC2)c2[nH]c(-c3ccnc(-c4ccc(Oc5ccccc5)cc4)n3)cc21 | ≥ 50 µg/mL
O=C1NCC2(CCNC2)c2[nH]c(-c3ccnc(-c4cc5ccccc5o4)c3)cc21 (centres unmarked) | ≥ 50 µg/mL
CCN1CCC2(CC1)CNC(=O)c1cc(-c3ccnc(-c4cc5ccccc5o4)n3)[nH]c12 | ≥ 50 µg/mL
O=C(Nc1cc(-c2cc3c([nH]2)C2(CCNCC2)CNC3=O)ccn1)c1ccc(C(F)(F)F)cc1 | 20 to 50 µg/mL

Hey, just so you know, these numbers are from patent US8772286B2.
